Measured pIC50 by item
molecular target: Phosphatidylinositol 4,5-bisphosphate 3-kinase catalytic subunit alpha isoform (Homo sapiens, UniProt P42336, H1047R); assay: Inhibition of human His-tagged PI3K p110alpha H1047R mutant after 2 hrs by HTRF assay
Sequence (P42336 whole entry H1047R, canonical isoform): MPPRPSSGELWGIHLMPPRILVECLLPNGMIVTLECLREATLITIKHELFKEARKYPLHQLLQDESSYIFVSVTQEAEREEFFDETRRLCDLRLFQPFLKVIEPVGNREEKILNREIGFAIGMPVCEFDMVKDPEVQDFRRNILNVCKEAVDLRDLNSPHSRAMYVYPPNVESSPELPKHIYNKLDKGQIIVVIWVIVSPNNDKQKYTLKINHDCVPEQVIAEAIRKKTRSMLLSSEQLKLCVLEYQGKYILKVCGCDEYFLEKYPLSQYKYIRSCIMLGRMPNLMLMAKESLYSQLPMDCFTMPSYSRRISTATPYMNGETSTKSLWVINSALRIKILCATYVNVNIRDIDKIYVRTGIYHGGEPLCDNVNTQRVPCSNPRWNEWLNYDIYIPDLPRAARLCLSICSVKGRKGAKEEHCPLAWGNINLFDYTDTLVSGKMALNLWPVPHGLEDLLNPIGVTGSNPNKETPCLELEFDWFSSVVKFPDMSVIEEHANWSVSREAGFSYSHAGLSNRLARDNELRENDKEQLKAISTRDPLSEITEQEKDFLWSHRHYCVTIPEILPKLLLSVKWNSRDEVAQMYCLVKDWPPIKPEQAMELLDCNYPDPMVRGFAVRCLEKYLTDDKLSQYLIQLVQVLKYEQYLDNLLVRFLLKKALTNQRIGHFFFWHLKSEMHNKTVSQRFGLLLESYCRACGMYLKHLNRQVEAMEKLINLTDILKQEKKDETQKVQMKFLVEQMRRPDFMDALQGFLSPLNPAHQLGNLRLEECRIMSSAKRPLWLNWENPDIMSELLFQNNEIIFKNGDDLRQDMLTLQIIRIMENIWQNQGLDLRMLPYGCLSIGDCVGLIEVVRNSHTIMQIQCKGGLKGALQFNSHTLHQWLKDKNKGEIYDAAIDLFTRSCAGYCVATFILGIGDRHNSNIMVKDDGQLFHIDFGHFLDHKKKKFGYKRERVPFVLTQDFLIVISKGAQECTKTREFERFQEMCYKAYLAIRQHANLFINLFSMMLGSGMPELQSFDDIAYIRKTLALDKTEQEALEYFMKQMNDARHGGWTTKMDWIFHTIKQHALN
pIC50: −log10 of the molar value.
readout.type: pIC50

INSERT INTO assay_data (sample_smiles, quantitative_result) VALUES
  ('FC(F)Oc1cccc2c1nc(C(F)F)n2-c1nc(N2CCOCC2)nc(N2CCOCC2)n1', 8.07),
  ('Oc1cccc2c1nc(C(F)F)n2-c1nc(N2CCOCC2)nc(N2CCOCC2)n1', 9.08),
  ('COc1ccc2c(nc(C(F)F)n2-c2nc(N3CCOCC3)nc(N3CCOCC3)n2)c1O', 6.80);

* * *

assay: AUC (infinity) in CD1 mouse at 10 mg/kg, ip administered as single dose by LC-MS/MS analysis; assay type: ADME, organism-based; parameters: time infinity, dose 10 mg/kg, route intraperitoneal; details: plasma
Here the recorded AUC(0-inf) is given for each entry.
readout.type: AUC(0-inf) (µM·h)

INSERT INTO measurements (sample_smiles, quantitative_result) VALUES
  ('COc1cc(N)cc2c1nc(C(F)F)n2-c1nc(N2CCOCC2)nc(N2CCOCC2)n1', 5.22),
  ('FC(F)c1nc2ccccc2n1-c1nc(N2CCOCC2)nc(N2CCOCC2)n1', 9.66),
  ('Oc1cccc2c1nc(C(F)F)n2-c1nc(N2CCOCC2)nc(N2CCOCC2)n1', 1.03);

* * *

assay: cells; settings: Homo sapiens, NZB5
pIC50: −log10 of the molar value.
Could you label it Satisfied if measured pIC50 is 7 or higher, and Not satisfied otherwise?

INSERT INTO results (sample_smiles, assigned_category) VALUES
  ('CSc1nc2ccccc2n1-c1nc(N2CCOCC2)nc(N2CCOCC2)n1', 'Not satisfied'),
  ('Nc1cccc2c1nc(C(F)F)n2-c1nc(N2CCOCC2)nc(N2CCOCC2)n1', 'Satisfied'),
  ('CN(C)c1cccc2c1nc(C(F)F)n2-c1nc(N2CCOCC2)nc(N2CCOCC2)n1', 'Satisfied'),
  ('OCc1cccc2c1nc(C(F)F)n2-c1nc(N2CCOCC2)nc(N2CCOCC2)n1', 'Not satisfied'),
  ('Oc1cccc2c1nc(C(F)F)n2-c1nc(N2CCOCC2)nc(N2CCOCC2)n1', 'Satisfied'),
  ('COC(=O)c1cccc2c1nc(C(F)F)n2-c1nc(N2CCOCC2)nc(N2CCOCC2)n1', 'Not satisfied'),
  ('CNc1cc(OC)c2nc(C(F)F)n(-c3nc(N4CCOCC4)nc(N4CCOCC4)n3)c2c1', 'Not satisfied');

* * *

experiment: cells; details: Homo sapiens, NZB5
Friendly reminder: IC50 below 300 nM is 1 (yes), at or above is 0 (no).

INSERT INTO measurements (sample_smiles, assigned_category) VALUES
  ('NC(=O)c1cccc2c1nc(C(F)F)n2-c1nc(N2CCOCC2)nc(N2CCOCC2)n1', '0 (no)'),
  ('c1ccc2c(c1)ncn2-c1nc(N2CCOCC2)nc(N2CCOCC2)n1', '0 (no)'),
  ('FCc1nc2ccccc2n1-c1nc(N2CCOCC2)nc(N2CCOCC2)n1', '0 (no)'),
  ('Oc1cccc2c1nc(C(F)F)n2-c1nc(N2CCOCC2)cc(N2CCOCC2)n1', '1 (yes)'),
  ('OCc1nc2ccccc2n1-c1nc(N2CCOCC2)nc(N2CCOCC2)n1', '0 (no)'),
  ('Cc1nc2ccccc2n1-c1nc(N2CCOCC2)nc(N2CCOCC2)n1', '1 (yes)'),
  ('CNc1cccc2c1nc(C(F)F)n2-c1nc(N2CCOCC2)nc(N2CCOCC2)n1', '1 (yes)'),
  ('CS(=O)(=O)c1nc2ccccc2n1-c1nc(N2CCOCC2)nc(N2CCOCC2)n1', '0 (no)'),
  ('FC(F)(F)c1nc2ccccc2n1-c1nc(N2CCOCC2)nc(N2CCOCC2)n1', '0 (no)'),
  ('COc1ccc2c(nc(C(F)F)n2-c2nc(N3CCOCC3)nc(N3CCOCC3)n2)c1OC', '1 (yes)');

* * *

biological target: Phosphatidylinositol 4,5-bisphosphate 3-kinase catalytic subunit alpha isoform (Homo sapiens); assay: Inhibition of PIK3CA-mediated cell signaling in PTEN-deficient human U87MG cells assessed as inhibition of insulin-induced pAkt/PKB phosphorylation at Thr308 treated for 15 mins before insulin challenge measured after 5 mins by immunoblotting; assay type: cell-based, U-87MG ATCC
readout.type: IC50 (nM)

INSERT INTO results (sample_smiles, readout_type, units, quantitative_result) VALUES
  ('FC(F)Oc1cccc2c1nc(C(F)F)n2-c1nc(N2CCOCC2)nc(N2CCOCC2)n1', 'IC50', 'nM', 418),
  ('COc1cccc2c1nc(C(F)F)n2-c1nc(N2CCOCC2)nc(N2CCOCC2)n1', 'IC50', 'nM', 28),
  ('COc1ccc2c(nc(C(F)F)n2-c2nc(N3CCOCC3)nc(N3CCOCC3)n2)c1O', 'IC50', 'nM', 378),
  ('Oc1cccc2c1nc(C(F)F)n2-c1nc(N2CCOCC2)nc(N2CCOCC2)n1', 'IC50', 'nM', 2.9);

* * *

This section presents compounds with their documented pIC50 values.
assay: cells; settings: Homo sapiens, NZB5
pIC50: −log10 of the molar value.
readout.type: pIC50

INSERT INTO results (compound, readout_type, quantitative_result) VALUES
  ('CCOc1cccc2c1nc(C(F)F)n2-c1nc(N2CCOCC2)nc(N2CCOCC2)n1', 'pIC50', 7.15),
  ('FC(F)c1nc2ccccc2n1-c1nc(N2CCOCC2)cc(N2CCOCC2)n1', 'pIC50', 6.92),
  ('C[S+]([O-])Cc1nc2ccccc2n1-c1nc(N2CCOCC2)nc(N2CCOCC2)n1 (stereo not drawn)', 'pIC50', 6.40);

* * *

target: Phosphatidylinositol 4,5-bisphosphate 3-kinase catalytic subunit beta isoform (Homo sapiens, UniProt P42338); assay: Inhibition of human recombinant PI3K p110beta expressed in Sf21 insect cells using phosphatidylinositol as substrate after 1 hr by phosphoimaging
Sequence (P42338 whole entry, canonical isoform): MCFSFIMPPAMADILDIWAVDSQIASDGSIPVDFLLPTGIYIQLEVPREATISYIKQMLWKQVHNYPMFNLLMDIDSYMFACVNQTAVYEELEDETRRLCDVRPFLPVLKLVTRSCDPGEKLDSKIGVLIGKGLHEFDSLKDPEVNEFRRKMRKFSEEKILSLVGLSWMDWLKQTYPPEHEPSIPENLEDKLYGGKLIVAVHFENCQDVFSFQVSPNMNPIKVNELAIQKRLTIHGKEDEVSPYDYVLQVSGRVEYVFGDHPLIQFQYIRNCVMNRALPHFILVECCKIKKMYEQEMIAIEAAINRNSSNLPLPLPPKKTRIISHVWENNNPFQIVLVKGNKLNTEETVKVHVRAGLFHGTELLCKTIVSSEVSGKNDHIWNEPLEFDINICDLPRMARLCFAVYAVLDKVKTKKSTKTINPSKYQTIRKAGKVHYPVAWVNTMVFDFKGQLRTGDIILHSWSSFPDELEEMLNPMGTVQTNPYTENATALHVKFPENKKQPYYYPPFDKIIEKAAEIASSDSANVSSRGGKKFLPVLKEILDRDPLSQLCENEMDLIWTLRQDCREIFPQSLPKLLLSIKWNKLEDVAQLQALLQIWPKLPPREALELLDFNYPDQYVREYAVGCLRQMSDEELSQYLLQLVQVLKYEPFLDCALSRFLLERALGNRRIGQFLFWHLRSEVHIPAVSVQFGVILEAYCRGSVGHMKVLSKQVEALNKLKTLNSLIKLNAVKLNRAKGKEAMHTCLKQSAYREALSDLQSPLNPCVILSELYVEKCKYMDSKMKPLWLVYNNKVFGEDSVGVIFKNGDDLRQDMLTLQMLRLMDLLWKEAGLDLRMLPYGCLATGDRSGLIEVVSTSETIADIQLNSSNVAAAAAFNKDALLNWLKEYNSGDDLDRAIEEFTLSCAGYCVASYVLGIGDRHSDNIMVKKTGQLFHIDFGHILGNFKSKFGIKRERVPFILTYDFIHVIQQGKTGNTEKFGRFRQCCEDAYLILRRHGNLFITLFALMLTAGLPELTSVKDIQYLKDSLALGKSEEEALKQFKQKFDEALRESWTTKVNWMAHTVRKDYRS
IC50 overview
readout.type: IC50 (nM)

INSERT INTO assay_data (sample_smiles, cmp, quantitative_result) VALUES
  ('N#Cc1cccc2c1nc(C(F)F)n2-c1nc(N2CCOCC2)nc(N2CCOCC2)n1', '>', 1000),
  ('Oc1cccc2c1nc(C(F)F)n2-c1nc(N2CCOCC2)cc(N2CCOCC2)n1', '=', 0.81),
  ('COc1cc(OC)c2nc(C(F)F)n(-c3nc(N4CCOCC4)nc(N4CCOCC4)n3)c2c1', '=', 118),
  ('CCOc1cccc2c1nc(C(F)F)n2-c1nc(N2CCOCC2)nc(N2CCOCC2)n1', '=', 104),
  ('COc1cncc2c1nc(C(F)F)n2-c1nc(N2CCOCC2)nc(N2CCOCC2)n1', '=', 1030),
  ('FC(F)Oc1cccc2c1nc(C(F)F)n2-c1nc(N2CCOCC2)nc(N2CCOCC2)n1', '=', 56),
  ('Oc1cccc2c1nc(C(F)F)n2-c1nc(N2CCOCC2)nc(N2CCOCC2)n1', '=', 0.68),
  ('CS(=O)(=O)c1nc2ccccc2n1-c1nc(N2CCOCC2)nc(N2CCOCC2)n1', '=', 383),
  ('FC(F)(F)c1nc2ccccc2n1-c1nc(N2CCOCC2)nc(N2CCOCC2)n1', '=', 461),
  ('COc1ccc2c(nc(C(F)F)n2-c2nc(N3CCOCC3)nc(N3CCOCC3)n2)c1O', '=', 6.7),
  ('CS(=O)(=O)Oc1cccc2c1nc(C(F)F)n2-c1nc(N2CCOCC2)nc(N2CCOCC2)n1', '=', 570),
  ('CN(C)C(=O)c1cccc2c1nc(C(F)F)n2-c1nc(N2CCOCC2)nc(N2CCOCC2)n1', '>', 1000),
  ('c1ccc2c(c1)ncn2-c1nc(N2CCOCC2)nc(N2CCOCC2)n1', '=', 1540),
  ('CN(C)c1cccc2c1nc(C(F)F)n2-c1nc(N2CCOCC2)nc(N2CCOCC2)n1', '>', 1000),
  ('FC(F)c1nc2c3c(ccc2n1-c1nc(N2CCOCC2)nc(N2CCOCC2)n1)OCO3', '=', 47),
  ('CNC(=O)c1cccc2c1nc(C(F)F)n2-c1nc(N2CCOCC2)nc(N2CCOCC2)n1', '>', 1000),
  ('CC(C)Oc1cccc2c1nc(C(F)F)n2-c1nc(N2CCOCC2)nc(N2CCOCC2)n1', '=', 2100),
  ('FC(F)c1nc2ccccc2n1-c1nc(N2CCOCC2)cc(N2CCOCC2)n1', '=', 72),
  ('Cc1nc2ccccc2n1-c1nc(N2CCOCC2)nc(N2CCOCC2)n1', '=', 289),
  ('OCc1nc2ccccc2n1-c1nc(N2CCOCC2)nc(N2CCOCC2)n1', '>', 1000);

Every entry's value here was drawn from ChEMBL document CHEMBL1909493.
